Data origin: ChEMBL document CHEMBL5321286

System: Hepatitis B virus
ASSAY_NAME: Antiviral activity against Hepatitis B virus infected in human HepDES19 cells assessed as reduction in viral DNA replication measured after 3 days by q-PCR assay
Format: functional, organism-based
CONDITION_PARAMETERS: Hepatitis B virus, HepDES19, 72 h
Consider the cut-off 6 µM. If the recorded EC50 is strictly smaller, the label is YES; if not, the label is NO.

O=[N+]([O-])c1c(N2CC[N+]3(CCC[N+]4(CCNCC4)CC3)CC2)ncnc1N1CC[N+]2(CCC[N+]3(CCNCC3)CC2)CC1 : NO
Cc1nc(N2CCC[N+]3(CC2)CC[N+]2(CCCNCC2)CC3)c([N+](=O)[O-])c(N2CCC[N+]3(CC2)CC[N+]2(CCCNCC2)CC3)n1 (configuration not stated) : YES
Cc1nc(N2CC[N+]3(CCC[N+]4(CCNCC4)CC3)CC2)c([N+](=O)[O-])c(N2CC[N+]3(CCC[N+]4(CCNCC4)CC3)CC2)n1 : NO
Nc1c(N2CCC[N+]3(CC2)CC[N+]2(CCCNCC2)CC3)ncnc1N1CCC[N+]2(CC1)CC[N+]1(CCCNCC1)CC2 (configuration not stated) : NO
Nc1c(N2CC[N+]3(CCC[N+]4(CCNCC4)CC3)CC2)ncnc1N1CC[N+]2(CCC[N+]3(CCNCC3)CC2)CC1 : NO
O=Cc1c(N2CCC[N+]3(CC2)CC[N+]2(CCCNCC2)CC3)ncnc1N1CCC[N+]2(CC1)CC[N+]1(CCCNCC1)CC2 (configuration not stated) : NO
O=Cc1c(O)nc(N2CC[N+]3(CCC[N+]4(CCNCC4)CC3)CC2)nc1N1CC[N+]2(CCC[N+]3(CCNCC3)CC2)CC1 : YES
